Measured values drawn from ChEMBL document CHEMBL1133628 for this set.

System: Human immunodeficiency virus 1
Experiment: In vitro inhibition of HIV-1(IIIB) cytopathicity in CEM cells.
Assay type: functional, organism-based
Conditions: Human immunodeficiency virus 1, CCRF-CEM

- LINE NOTATION: "O=C1c2ccccc2N(Cc2ccccc2Cl)S(=O)(=O)N1COCc1ccccc1"
  EC50: "> 10 µM"
- LINE NOTATION: "O=C1c2ccccc2N(COCc2ccccc2)S(=O)(=O)N1Cc1ccccc1"
  EC50: "> 8 µM"
- LINE NOTATION: "O=C(OCOCN1c2ccccc2C(=O)N(Cc2ccccc2)S1(=O)=O)c1ccccc1"
  EC50: "> 40 µM"
- LINE NOTATION: "O=C1c2ccccc2N(Cc2ccc(Cl)c(Cl)c2)S(=O)(=O)N1Cc1ccccc1"
  EC50: "> 2 µM"
- LINE NOTATION: "O=C1c2ccccc2N(Cc2ccccc2Cl)S(=O)(=O)N1Cc1ccccc1"
  EC50: "> 10 µM"
- LINE NOTATION: "O=C1c2ccccc2N(Cc2ccc(Cl)cc2)S(=O)(=O)N1Cc1ccc(Cl)cc1"
  EC50: "> 10 µM"
- LINE NOTATION: "C#CCOCN1c2ccccc2C(=O)N(Cc2ccccc2)S1(=O)=O"
  EC50: "> 8 µM"
- LINE NOTATION: "O=C1c2ccccc2N(Cc2ccccc2)S(=O)(=O)N1Cc1ccccc1Cl"
  EC50: "> 250 µM"
- LINE NOTATION: "O=S1(=O)N=C(OCc2ccccc2)c2ccccc2N1Cc1ccc(Cl)c(Cl)c1"
  EC50: "> 10 µM"
- LINE NOTATION: "O=S1(=O)N=C(OCc2ccccc2)c2ccccc2N1Cc1ccccc1"
  EC50: "> 10 µM"
